Source of measurements: patent US20190105337A1

# method-description: Example 6: noncompartmental plasma pharmacokinetics after third dose of the Combination (2 g meropenem/2 g Compound I q8h)
# experimental-conditions: both, human, plasma, intravenous, AUC0-8, meropenem 2 g q8h, 6-hour BAL Sampling Group
measurement-name: AUC(0-t) (µg·h/mL)
Answers are plain numbers, in µg·h/mL.

// AUC(0-t) lookup, key: C[C@@H](O)[C@H]1C(=O)N2C(C(=O)O)=C(S[C@@H]3CN[C@H](C(=O)N(C)C)C3)[C@H](C)[C@H]12 [meropenem, Meropenem]
197

====

# method-description: Example 6: noncompartmental plasma pharmacokinetics after third dose of the Combination (2 g meropenem/2 g Compound I q8h)
# experimental-conditions: both, human, plasma, intravenous, Tmax, Compound I 2 g q8h, 1.5-hour BAL Sampling Group
measurement-name: Tmax (h)
Numbers only, in h.

// query Tmax value for entry O=C(O)C[C@@H]1CC[C@H](NC(=O)Cc2cccs2)B(O)O1
2.95

====

# method-description: clinical
# experimental-conditions: both, human, in vivo, ELF concentration at time of bronchoscopy and BAL
measurement-name: concentration at 8 h
Number plus unit, in that order.

What does the record list as concentration at 8 h for O=C(O)C[C@@H]1CC[C@H](NC(=O)Cc2cccs2)B(O)O1 ?
2610 ng/mL

====

# method-description: Example 6: noncompartmental plasma pharmacokinetics after third dose of the Combination (2 g meropenem/2 g Compound I q8h)
# experimental-conditions: both, human, plasma, intravenous, CL, Compound I 2 g q8h, 3.25-hour BAL Sampling Group
measurement-name: clearance (mL/min)
One number for each entry, in mL/min.

// lookup clearance for O=C(O)C[C@@H]1CC[C@H](NC(=O)Cc2cccs2)B(O)O1 [Compound I]
162

====

# method-description: Example 6: noncompartmental plasma pharmacokinetics after third dose of the Combination (2 g meropenem/2 g Compound I q8h)
# experimental-conditions: both, human, plasma, intravenous, CL, meropenem 2 g q8h, 4-hour BAL Sampling Group
measurement-name: clearance
Write your answer as a measured quantity: the number, then the unit.

Query (compound): C[C@@H](O)[C@H]1C(=O)N2C(C(=O)O)=C(S[C@@H]3CN[C@H](C(=O)N(C)C)C3)[C@H](C)[C@H]12 ; field requested: clearance
175 mL/min

====

# method-description: clinical
# experimental-conditions: human, in vivo, 1000 mg, Half-Life
measurement-name: half-life (min)
Give bare numbers, in min.

What value of half-life has been recorded for this entry: O=C(O)C[C@@H]1CC[C@H](NC(=O)Cc2cccs2)B(O)O1
93.6

====

# method-description: clinical
# experimental-conditions: human, in vivo, 250 mg, AUC(0-∞)
measurement-name: AUC(0-inf) (ng·h/mL)
Give bare numbers, in ng·h/mL.

Would you mind telling me what AUC(0-inf) value was observed for O=C(O)C[C@@H]1CC[C@H](NC(=O)Cc2cccs2)B(O)O1 [Compound I] ?
17500

====

# method-description: clinical
# experimental-conditions: both, human, in vivo, mean ratios of AM to simultaneous plasma concentration (range)
measurement-name: Kp

Any idea what Kp was measured for O=C(O)C[C@@H]1CC[C@H](NC(=O)Cc2cccs2)B(O)O1 ?
0.062 to 2.58

====

# method-description: Example 1: pharmacokinetics of Compound I, single (SD) and multiple (MD, q8h 7 days) ascending doses, 3-hour IV infusion, healthy adult subjects
# Type: in vivo, human
# experimental-conditions: human, plasma and urine, intravenous, 2000 mg, 2000 mg multiple dose
measurement-name: CL renal (mL/min)
Numbers only, in mL/min.

Name the reported CL renal value associated with the compound O=C(O)C[C@@H]1CC[C@H](NC(=O)Cc2cccs2)B(O)O1
213

====

# method-description: Example 1: pharmacokinetics of Compound I, single (SD) and multiple (MD, q8h 7 days) ascending doses, 3-hour IV infusion, healthy adult subjects
# Type: in vivo, human
# experimental-conditions: human, plasma, intravenous, 2000 mg, 2000 mg multiple dose; read-out: T1/2 (converted)
measurement-name: half-life (h)
Give bare numbers, in h.

Entry O=C(O)C[C@@H]1CC[C@H](NC(=O)Cc2cccs2)B(O)O1 [Compound I] : reported half-life = ?
1.66

====

# method-description: Example 6: noncompartmental plasma pharmacokinetics after third dose of the Combination (2 g meropenem/2 g Compound I q8h)
# experimental-conditions: both, human, plasma, intravenous, Cmax, meropenem 2 g q8h, 3.25-hour BAL Sampling Group
measurement-name: Cmax (µg/mL)
Answers are plain numbers, in µg/mL.

If you can, please state the reported Cmax value of C[C@@H](O)[C@H]1C(=O)N2C(C(=O)O)=C(S[C@@H]3CN[C@H](C(=O)N(C)C)C3)[C@H](C)[C@H]12 .
57.9

====

# method-description: clinical
# experimental-conditions: both, human, in vivo, ELF concentration at time of bronchoscopy and BAL
measurement-name: concentration at 6 h (ng/mL)
Numbers only, in ng/mL.

Item under review: O=C(O)C[C@@H]1CC[C@H](NC(=O)Cc2cccs2)B(O)O1 . Reported concentration at 6 h?
8030

====

# method-description: Example 6: noncompartmental plasma pharmacokinetics after third dose of the Combination (2 g meropenem/2 g Compound I q8h)
# experimental-conditions: both, human, plasma, intravenous, AUC0-8, meropenem 2 g q8h, 4-hour BAL Sampling Group
measurement-name: AUC(0-t) (µg·h/mL)
Numbers only, in µg·h/mL.

Which AUC(0-t) value is on record for C[C@@H](O)[C@H]1C(=O)N2C(C(=O)O)=C(S[C@@H]3CN[C@H](C(=O)N(C)C)C3)[C@H](C)[C@H]12 ?
196

====

# method-description: clinical
# experimental-conditions: both, human, in vivo, AM concentration at time of bronchoscopy and BAL
# Method: A total of twenty-five (n=25) male and female subjects who met the study entry criteria and completed all phases of the pharmacokinetic study were included in this pharmacokinetic analysis. […] The concentration of drug (ABXAM) in the alveolar cells (AC) was determined as follows: […] The concentration ratios of ELF and AM to the simultaneous plasma concentrations were calculated for each subject and summarized for each group at each sampling time. […]
measurement-name: concentration at 1.5 h (ng/mL)
One number for each entry, in ng/mL.

// query concentration at 1.5 h value for entry O=C(O)C[C@@H]1CC[C@H](NC(=O)Cc2cccs2)B(O)O1
2710

====

# method-description: Example 6: noncompartmental plasma pharmacokinetics after third dose of the Combination (2 g meropenem/2 g Compound I q8h)
# experimental-conditions: both, human, plasma, intravenous, t1/2, Compound I 2 g q8h, 4-hour BAL Sampling Group
measurement-name: half-life (h)
Answers are plain numbers, in h.

Entry O=C(O)C[C@@H]1CC[C@H](NC(=O)Cc2cccs2)B(O)O1 [Compound I] has what half-life?
1.34

====

# method-description: clinical
# experimental-conditions: human, in vivo, 1500 mg, Half-Life
measurement-name: half-life (h)
One number for each entry, in h.

Give the measured half-life of O=C(O)C[C@@H]1CC[C@H](NC(=O)Cc2cccs2)B(O)O1 .
1.21

====

# method-description: Example 1: pharmacokinetics of Compound I, single (SD) and multiple (MD, q8h 7 days) ascending doses, 3-hour IV infusion, healthy adult subjects
# Type: in vivo, human
# experimental-conditions: human, plasma and urine, intravenous, 500 mg, 500 mg single dose
measurement-name: CL renal
Form entry: enter the amount, then its unit.

# lookup: CL renal of O=C(O)C[C@@H]1CC[C@H](NC(=O)Cc2cccs2)B(O)O1
197 mL/min

====

# method-description: Example 1: pharmacokinetics of Compound I, single (SD) and multiple (MD, q8h 7 days) ascending doses, 3-hour IV infusion, healthy adult subjects
# Type: in vivo, human
# experimental-conditions: human, plasma, intravenous, 750 mg, 750 mg single dose; read-out: T1/2 (converted)
measurement-name: half-life (h)
Give bare numbers, in h.

So what's the measured half-life for this one? O=C(O)C[C@@H]1CC[C@H](NC(=O)Cc2cccs2)B(O)O1
1.24

====

# method-description: clinical
# experimental-conditions: both, human, in vivo, ELF concentration at time of bronchoscopy and BAL
measurement-name: concentration at 3.25 h (ng/mL)
One number for each entry, in ng/mL.

What value of measured concentration at 3.25 h is listed for O=C(O)C[C@@H]1CC[C@H](NC(=O)Cc2cccs2)B(O)O1 [Compound I] ?
26100

====

# method-description: Example 6: noncompartmental plasma pharmacokinetics after third dose of the Combination (2 g meropenem/2 g Compound I q8h)
# experimental-conditions: both, human, plasma, intravenous, t1/2, Compound I 2 g q8h, 3.25-hour BAL Sampling Group
measurement-name: half-life (h)
Give bare numbers, in h.

# get_value(readout='half-life', item= O=C(O)C[C@@H]1CC[C@H](NC(=O)Cc2cccs2)B(O)O1 [Compound I] )
1.26

====

# method-description: Example 6: noncompartmental plasma pharmacokinetics after third dose of the Combination (2 g meropenem/2 g Compound I q8h)
# experimental-conditions: both, human, plasma, intravenous, CL, Compound I 2 g q8h, 6-hour BAL Sampling Group
measurement-name: clearance (mL/min)
One number for each entry, in mL/min.

Give its clearance value. Item: O=C(O)C[C@@H]1CC[C@H](NC(=O)Cc2cccs2)B(O)O1
158
